Test system: 889142-216-R-J1-PDC complex spheroid viability;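 further: spheroids exposed to compounds for seven days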
Method summary: Anticancer human tumor 889142-216-R-J1-PDC patient-derived bladder carcinoma cell line growth inhibition [POLQ]
Test parameters: curve of first compound; second compound 0.0316 µM
Entries annotated with measured IC50

Reference set (2 entries):
The compound identified as O=C(c1cc(Cc2n[nH]c(=O)c3ccccc23)ccc1F)N1CCN(C(=O)C2CC2)CC1 + Nc1ccc(C#CCN(C(=O)Cc2ncc(C(F)(F)F)cc2C(F)(F)F)c2ccc(F)cc2)nn1 registered its IC50 at > 10 µM

The compound identified as O=C(c1cc(Cc2n[nH]c(=O)c3ccccc23)ccc1F)N1CCN(C(=O)C2CC2)CC1 + Cc1cccc(N(C)C(=O)C2C(O)CCN2c2nc(C)cc(C(F)(F)F)c2C#N)c1 registered its IC50 at > 10 µM

Moving on to another compound below.
The compound identified as CCCS(=O)(=O)Nc1ccc(F)c(C(=O)c2c[nH]c3ncc(-c4ccc(Cl)cc4)cc23)c1F + COC1C(OC(N)=O)C(O)C(Oc2ccc3c(O)c(NC(=O)c4ccc(O)c(CC=C(C)C)c4)c(=O)oc3c2C)OC1(C)C registered its IC50 at 5.53 µM

Provenance of the data: PubChem BioAssay AID1963831
